Target: monkey GPC3-His protein (monkey)
Test: ELISA, monkey GPC3-His coated; antibody 0.53 nM
Measured parameter: OD450 nm

[
  {
    "Binder": "hAb003LH3L1b (antibody, human IgG1, V domains shown) VH: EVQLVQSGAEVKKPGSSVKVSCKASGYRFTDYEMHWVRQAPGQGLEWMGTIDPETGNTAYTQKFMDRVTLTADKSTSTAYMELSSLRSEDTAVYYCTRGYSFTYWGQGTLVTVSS VL: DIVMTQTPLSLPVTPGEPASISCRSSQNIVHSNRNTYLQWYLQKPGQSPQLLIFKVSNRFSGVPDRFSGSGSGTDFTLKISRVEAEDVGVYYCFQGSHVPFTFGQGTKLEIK",
    "Assay result": 2.5
  },
  {
    "Binder": "hAb005LH1L1a (antibody, human IgG1, V domains shown) VH: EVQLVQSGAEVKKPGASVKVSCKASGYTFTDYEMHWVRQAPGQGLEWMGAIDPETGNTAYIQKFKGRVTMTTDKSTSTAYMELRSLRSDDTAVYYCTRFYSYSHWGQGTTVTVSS VL: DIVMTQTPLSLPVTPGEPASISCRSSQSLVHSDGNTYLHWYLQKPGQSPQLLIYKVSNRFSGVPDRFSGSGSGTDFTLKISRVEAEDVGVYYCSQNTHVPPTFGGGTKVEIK",
    "Assay result": 0.053
  },
  {
    "Binder": "hAb006LH2L1 (antibody, human IgG1, V domains shown) VH: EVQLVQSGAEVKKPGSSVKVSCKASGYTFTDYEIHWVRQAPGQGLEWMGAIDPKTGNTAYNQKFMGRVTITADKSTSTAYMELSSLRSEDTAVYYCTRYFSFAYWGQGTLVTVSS VL: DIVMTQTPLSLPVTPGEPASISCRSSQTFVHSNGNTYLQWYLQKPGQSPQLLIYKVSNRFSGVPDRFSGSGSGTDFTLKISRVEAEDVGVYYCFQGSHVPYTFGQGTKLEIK",
    "Assay result": 2.38
  },
  {
    "Binder": "hAb007LH1L1a (antibody, human IgG1, V domains shown) VH: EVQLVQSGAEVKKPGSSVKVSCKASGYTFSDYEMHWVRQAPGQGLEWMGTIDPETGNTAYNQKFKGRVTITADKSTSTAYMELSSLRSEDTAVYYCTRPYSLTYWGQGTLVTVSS VL: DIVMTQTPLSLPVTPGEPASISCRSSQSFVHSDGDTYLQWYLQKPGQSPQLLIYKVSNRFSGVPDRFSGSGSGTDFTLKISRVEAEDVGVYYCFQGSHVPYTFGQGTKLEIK",
    "Assay result": 1.57
  }
]
